Tested on: HCT-116 colon
Assay: NCI tumour cell line growth inhibition, 48 h
Kindly state TGI for each of the entries shown.
Write the answer as a number in µM, unit excluded.

// CC(=O)NC1=C(C)C(=O)c2c(nc3n2CCC3O)C1=O (centres undefined) : TGI value = 67.7

Looking up COc1ccc(/C=C(\C(=C/c2ccc(OC)cc2)[N+](=O)[O-])[N+](=O)[O-])cc1 , I see its TGI listed as 24.8

Briefly, TGI measured for CCOC(=O)c1c2c(n(-c3ccc(OC)cc3)c1C)C(=O)C(=O)c1ccccc1-2 : 3

The molecule COC(=O)c1ccc(CCc2cc(O)ccc2O)cc1 showed TGI equal to 24

get_value(item= C[C@@H]1COCCN1c1nc(-c2cnc(N)cc2C(F)F)nc(N2[C@H](C)COC[C@@H]2C)n1 , readout=TGI) returns 14.5

Entry N#CC(C#N)=Cc1c(O)ccc2ccccc12 — recorded TGI = 30.9

Fc1ccc(C2CC(c3cccc(Nc4ccncc4)c3)=NN2c2cc(Cl)cc(Cl)c2)cc1 (centres undefined) has a reported TGI of 3.15

Value of TGI reported for the molecule Cc1nc2cncc(C#Cc3cncc(C(=O)Nc4ccc(CN5CCN(C)CC5)c(C(F)(F)F)c4)c3)c2nc1C is 2.22

Lookup result for Nc1ccc(N=Nc2ccccc2)c(N)n1 ; measured TGI: 60.5

TGI recorded for this molecule, NC(=O)C(Br)CBr (centres undefined) , is 2.56

Value of TGI reported for the molecule COc1ccccc1/C=C1\CCC(CNc2ccc(Cl)cc2)C1=O (centres undefined) is 19.1

Form: molecule = O=C(CN1CCCCC1)c1ccc2c(c1)Sc1ccccc1O2 ; TGI = 35

Notebook: O=CN1N=C(c2ccc(Nc3ccnc4cc(Cl)ccc34)cc2)CC1c1ccccc1 (centres undefined) , TGI read as 18.5
